# Tested on: HeLa
# method: Cytotoxicity against human HeLa cells assessed as reduction in cell viability measured after 48 hrs
# Format: functional, cell-based
pIC50: −log10 of the molar value.
Examples of molecules with documented pIC50 follow.
measure.name: pIC50

- item.smiles: "O=C(/C=C/c1cccc([N+](=O)[O-])c1)c1ccc(OCc2cn(CCCC[P+](c3ccccc3)(c3ccccc3)c3ccccc3)nn2)c(F)c1"
  censoring.qualifier: "="
  observed.result: 5.62
- item.smiles: "COc1ccc(C(=O)/C=C/c2cccc([N+](=O)[O-])c2)cc1F"
  censoring.qualifier: "<"
  observed.result: 4.30
